- target_under_test: Neuronal acetylcholine receptor subunit alpha-7 (Homo sapiens, UniProt P36544)
- Sequence (P36544 whole entry): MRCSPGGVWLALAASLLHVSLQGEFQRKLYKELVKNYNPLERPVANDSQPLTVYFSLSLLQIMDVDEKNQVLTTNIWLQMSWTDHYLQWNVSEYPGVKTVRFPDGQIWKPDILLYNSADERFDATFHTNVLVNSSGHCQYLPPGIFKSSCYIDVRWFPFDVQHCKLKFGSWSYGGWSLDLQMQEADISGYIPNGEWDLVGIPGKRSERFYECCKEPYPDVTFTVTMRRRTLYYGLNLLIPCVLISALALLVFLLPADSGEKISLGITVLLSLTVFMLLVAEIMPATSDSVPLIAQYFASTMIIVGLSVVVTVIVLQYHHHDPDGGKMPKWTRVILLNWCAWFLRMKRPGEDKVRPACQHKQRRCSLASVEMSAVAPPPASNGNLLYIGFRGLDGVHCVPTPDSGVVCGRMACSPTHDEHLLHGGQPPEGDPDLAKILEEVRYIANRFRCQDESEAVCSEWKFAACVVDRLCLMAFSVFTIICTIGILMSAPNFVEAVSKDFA
- assay_details: Agonist activity at human alpha7 nAChR expressed in mouse Neuro2a cells co-expressing chaperone NACHO assessed as increase in intracellular Ca2+ levels in presence of PNU120596 by calcium flux assay
Provide the recorded pEC50 for the entries that follow.
One number for each entry, as −log10 of the molar value.

Each of the following entries comes with a recorded value; kindly state pEC50 for each.
1. CN(C)[C@@H]1[C@@H]2CC[C@@H](C2)[C@H]1c1ccc(Cl)nc1
2. N[C@@H]1[C@@H]2CC[C@@H](C2)[C@H]1c1cccnc1
3. N[C@@H]1[C@@H]2CC[C@@H](C2)[C@H]1c1ccc(Cl)nc1
4. CN[C@@H]1[C@@H]2CC[C@@H](C2)[C@H]1c1cccnc1

1: 5.19; 2: 7.32; 3: 7.62; 4: 5.64

----------
- assay_details: Displacement of [3H]-cytisine from alpha4beta2* nAChR in Wistar rat cerebral cortex membranes after 75 mins
- Format: cell membranes
recorded_metric: log10(Ki) (log10 of the value in nM)
Kindly note that the scale is log10 and the underlying Ki is in nM.

// worked examples, log10(Ki) included
{"columns": ["mol", "log10(Ki)"],
 "data": [
  ["N[C@@H]1[C@@H]2CC[C@@H](C2)[C@H]1c1ccc(Cl)nc1", 0.12],
  ["N[C@@H]1[C@@H]2CC[C@@H](C2)[C@H]1c1cccnc1", 0.32],
  ["N[C@@H]1[C@H]2CC[C@H](C2)[C@H]1c1ccc(Cl)nc1", 1.45],
  ["CN[C@@H]1[C@@H]2CC[C@@H](C2)[C@H]1c1ccc(Cl)nc1", 0.49]
]}

Each of the following entries comes with a recorded value; kindly state log10(Ki) for each.
1. CN[C@@H]1[C@H]2CC[C@H](C2)[C@H]1c1cccnc1
2. CN[C@@H]1[C@@H]2CC[C@@H](C2)[C@H]1c1cccnc1

1: 2.31; 2: 1.01

----------
Provide the recorded pEC50 for the entries that follow.
- target_under_test: Neuronal acetylcholine receptor subunit alpha-7 (Rattus norvegicus, UniProt Q05941)
- Sequence (Q05941 whole entry): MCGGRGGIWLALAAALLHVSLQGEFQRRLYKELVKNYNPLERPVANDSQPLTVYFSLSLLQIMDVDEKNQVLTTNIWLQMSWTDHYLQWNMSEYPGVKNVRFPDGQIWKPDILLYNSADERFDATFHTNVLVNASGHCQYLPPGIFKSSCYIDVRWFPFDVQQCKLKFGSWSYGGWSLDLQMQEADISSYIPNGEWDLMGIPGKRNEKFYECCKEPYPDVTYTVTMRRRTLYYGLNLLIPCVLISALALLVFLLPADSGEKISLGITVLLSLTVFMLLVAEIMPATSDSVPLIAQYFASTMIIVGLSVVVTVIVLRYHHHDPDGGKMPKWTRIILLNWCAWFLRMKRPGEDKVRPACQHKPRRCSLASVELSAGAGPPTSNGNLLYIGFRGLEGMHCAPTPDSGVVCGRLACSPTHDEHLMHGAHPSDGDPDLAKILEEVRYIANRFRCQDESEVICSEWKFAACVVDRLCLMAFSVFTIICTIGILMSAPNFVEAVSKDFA
- assay_details: Agonist activity at rat alpha7 nAChR expressed in Xenopus laevis oocytes after 4 to 5 days at -60 mV holding potential by […] assay
Answers are plain numbers, as −log10 of the molar value.

{"columns": ["mol", "recorded_metric", "recorded_measurement"],
 "data": [
  ["N[C@@H]1[C@@H]2CC[C@@H](C2)[C@H]1c1ccc(Cl)nc1", "pEC50", 5.57]
]}

Turning now to a further record.
Under Neuronal acetylcholine receptor subunit alpha-7 (Rattus norvegicus, UniProt Q05941): pEC50 value of "N[C@@H]1[C@@H]2CC[C@@H](C2)[C@H]1c1cccnc1" ?
5.22

----------
- target_under_test: Neuronal acetylcholine receptor subunit alpha-7 (Rattus norvegicus) (UniProt Q05941)
- Sequence (Q05941 whole entry): as above
- assay_details: Displacement of [3H]-methyllycaconitine from alpha7* nAChR in rat brain P2 membranes at 1 uM after 2.5 hrs by liquid scintillation spectrometry relative to control
- Type: cell membranes
Provide the recorded inhibition for the entries that follow.

// worked examples, inhibition included
{"columns": ["mol", "recorded_metric", "recorded_measurement"],
 "data": [
  ["CN[C@@H]1[C@H]2CC[C@H](C2)[C@H]1c1cccnc1", "inhibition", "15%"],
  ["CN(C)[C@@H]1[C@H]2CC[C@H](C2)[C@H]1c1cccnc1", "inhibition", "6%"],
  ["CN(C)[C@@H]1[C@@H]2CC[C@@H](C2)[C@H]1c1ccc(Cl)nc1", "inhibition", "33%"]
]}

Each of the following entries comes with a recorded value; kindly state inhibition for each.
1. CN(C)[C@@H]1[C@H]2CC[C@H](C2)[C@H]1c1ccc(Cl)nc1
2. CN(C)[C@@H]1[C@@H]2CC[C@@H](C2)[C@H]1c1cccnc1
3. N[C@@H]1[C@H]2CC[C@H](C2)[C@H]1c1cccnc1

1. 18%
2. 8%
3. 30%
